# TARGET DESC: bovine cardiac myofibrils (full-length cardiac myosin ATPase in the native sarcomere) (Bos taurus (Bovine), UniProt Q9BE39)
# Sequence (Q9BE39 whole entry): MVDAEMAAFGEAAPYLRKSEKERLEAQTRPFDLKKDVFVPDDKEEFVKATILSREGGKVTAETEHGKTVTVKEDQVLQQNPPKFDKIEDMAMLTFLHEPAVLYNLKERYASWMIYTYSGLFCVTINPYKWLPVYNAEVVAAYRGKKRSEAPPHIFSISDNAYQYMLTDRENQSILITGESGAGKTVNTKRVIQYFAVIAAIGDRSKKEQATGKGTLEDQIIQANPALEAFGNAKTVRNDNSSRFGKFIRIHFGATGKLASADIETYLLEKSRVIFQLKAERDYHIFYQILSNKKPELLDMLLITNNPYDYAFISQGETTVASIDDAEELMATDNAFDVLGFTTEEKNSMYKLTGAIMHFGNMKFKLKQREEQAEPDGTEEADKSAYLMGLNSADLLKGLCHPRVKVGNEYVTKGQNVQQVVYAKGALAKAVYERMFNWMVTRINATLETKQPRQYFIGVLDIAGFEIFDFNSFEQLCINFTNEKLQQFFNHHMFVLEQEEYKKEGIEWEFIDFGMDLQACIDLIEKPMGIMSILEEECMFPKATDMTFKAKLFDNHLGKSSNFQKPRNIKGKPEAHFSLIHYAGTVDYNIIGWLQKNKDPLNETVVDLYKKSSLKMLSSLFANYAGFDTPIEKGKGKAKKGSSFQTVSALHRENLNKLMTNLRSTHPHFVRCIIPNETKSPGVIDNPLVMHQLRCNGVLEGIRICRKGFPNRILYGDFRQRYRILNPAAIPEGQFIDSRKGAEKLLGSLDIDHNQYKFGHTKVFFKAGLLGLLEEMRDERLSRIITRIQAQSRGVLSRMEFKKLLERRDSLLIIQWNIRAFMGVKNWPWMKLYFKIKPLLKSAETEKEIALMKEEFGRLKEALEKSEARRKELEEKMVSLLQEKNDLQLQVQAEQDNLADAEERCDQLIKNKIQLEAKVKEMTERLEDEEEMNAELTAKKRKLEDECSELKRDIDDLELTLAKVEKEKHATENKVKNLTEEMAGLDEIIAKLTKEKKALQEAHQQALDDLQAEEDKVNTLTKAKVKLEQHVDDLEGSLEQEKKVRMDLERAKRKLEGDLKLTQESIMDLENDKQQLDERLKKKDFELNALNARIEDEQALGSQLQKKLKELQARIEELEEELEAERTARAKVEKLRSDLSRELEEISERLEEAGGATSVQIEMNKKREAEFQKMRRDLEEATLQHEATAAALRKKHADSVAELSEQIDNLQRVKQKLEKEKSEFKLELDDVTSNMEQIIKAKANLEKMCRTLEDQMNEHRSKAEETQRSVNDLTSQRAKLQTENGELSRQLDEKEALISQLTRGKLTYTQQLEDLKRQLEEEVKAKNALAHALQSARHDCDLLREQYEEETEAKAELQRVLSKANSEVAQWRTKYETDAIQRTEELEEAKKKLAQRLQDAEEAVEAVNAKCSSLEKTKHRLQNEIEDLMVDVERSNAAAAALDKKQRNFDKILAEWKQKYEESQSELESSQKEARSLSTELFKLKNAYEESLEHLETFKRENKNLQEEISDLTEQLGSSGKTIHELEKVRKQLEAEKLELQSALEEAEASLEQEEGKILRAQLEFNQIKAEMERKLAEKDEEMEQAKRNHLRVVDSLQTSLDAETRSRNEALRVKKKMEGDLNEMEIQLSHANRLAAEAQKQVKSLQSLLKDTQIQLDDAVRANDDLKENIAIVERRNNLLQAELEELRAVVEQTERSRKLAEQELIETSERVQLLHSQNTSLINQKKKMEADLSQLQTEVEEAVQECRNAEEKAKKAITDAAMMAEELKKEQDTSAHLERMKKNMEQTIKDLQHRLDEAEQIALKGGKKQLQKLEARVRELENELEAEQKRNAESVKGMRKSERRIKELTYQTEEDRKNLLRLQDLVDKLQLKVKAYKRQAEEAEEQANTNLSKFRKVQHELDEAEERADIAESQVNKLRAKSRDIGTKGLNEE
# Sequence (P85100 whole entry partner): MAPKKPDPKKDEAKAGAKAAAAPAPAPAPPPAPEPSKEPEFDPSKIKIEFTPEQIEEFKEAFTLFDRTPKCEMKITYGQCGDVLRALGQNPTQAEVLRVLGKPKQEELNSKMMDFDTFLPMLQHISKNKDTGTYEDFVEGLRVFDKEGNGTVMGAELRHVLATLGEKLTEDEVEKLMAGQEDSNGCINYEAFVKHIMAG
# Sequence (Q3SZE5 whole entry partner): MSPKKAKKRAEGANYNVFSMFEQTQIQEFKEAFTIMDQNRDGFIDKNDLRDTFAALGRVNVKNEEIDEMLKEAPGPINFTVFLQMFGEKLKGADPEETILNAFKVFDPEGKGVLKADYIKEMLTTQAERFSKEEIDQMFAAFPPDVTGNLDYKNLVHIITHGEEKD
# METHOD DESCRIPTION: Skinned bovine cardiac myofibril ATPase assay (PK/LDH-coupled)
# Assay type: biochemical
# CONDITION INFO: Ca2+ activating to 75% of maximal rate, concentration giving 15% inhibition
ATTRIBUTE MEASURED: CDMF75 IC15 (nM)

Reference set, count: 4
COMPOUND: Cc1nc(-c2ccc3c(c2)CCC3NC(=O)c2ncn(C)n2)no1 (centres unmarked) [Compound 119]
CDMF75 IC15 [nM]: 39200
--
COMPOUND: O=C(NC1CCc2cc(-c3noc(C(F)F)n3)ccc21)c1ocnc1C1CC1 (centres unmarked) [Compound 21]
CDMF75 IC15 [nM]: 700
--
COMPOUND: CCc1nc(-c2ccc3c(c2)CC[C@H]3NC(=O)c2ncc(C)s2)no1 [Compound 640]
CDMF75 IC15 [nM]: 500
--
COMPOUND: COCc1nc(-c2ccc3c(c2)CC[C@H]3NC(=O)c2cn(CCO)nc2C)no1 [Compound 695]
CDMF75 IC15 [nM]: 2100

P = Cc1nccnc1C(=O)NC1CCc2cc(-c3noc(C(F)F)n3)ccc21 (centres unmarked) [Compound 38]
Q = CCc1nc(-c2ccc3c(c2)OC[C@H]3NC(=O)c2ccnn2C)no1 [Compound 228]
R = Cc1cc(-c2ccc3c(c2)CC[C@H]3NC(=O)c2ccnn2C)ncn1 [Compound 381]
S = COCc1nc(-c2ccc3c(c2)OCC3NC(=O)c2ccnn2C)no1 (centres unmarked) [Compound 223]
query: Reorder the items by CDMF75 IC15, least to greatest. Could you list the labels in the order requested?
result: Q, S, P, R
(Q: 300 nM, S: 1300 nM, P: 2200 nM, R: 39200 nM)

* * *

# TARGET DESC: bovine cardiac myofibrils (full-length cardiac myosin ATPase in the native sarcomere) (Bos taurus (Bovine))
# METHOD DESCRIPTION: Skinned bovine cardiac myofibril ATPase assay (PK/LDH-coupled)
# Format: biochemical
# CONDITION INFO: Ca2+ activating to 75% of maximal rate, read-out: CDMF75 IC50
pIC50: −log10 of the molar value.
ATTRIBUTE MEASURED: pIC50

Reference set, count: 5
COMPOUND: Cc1noc(C(=O)NC2CCc3cc(-c4noc(C(F)F)n4)ccc32)n1 (centres unmarked) [Compound 127]
pIC50: 5.11

COMPOUND: CCc1nc(-c2ccc3c(c2)OC[C@H]3NC(=O)c2ccnn2C)no1 [Compound 228]
pIC50: 6.10

COMPOUND: O=C(NC1CCc2cc(-c3noc(C(F)F)n3)ccc21)C(F)F (centres unmarked) [Compound 1]
pIC50: 4.66

COMPOUND: CCc1nc(-c2ccc3c(c2)CC[C@H]3NC(=O)c2ncc(C)o2)no1 [Compound 636]
pIC50: 5.66

COMPOUND: COCCn1cc(C(=O)N[C@@H]2CCc3cc(-c4noc(COC)n4)ccc32)cn1 [Compound 512]
pIC50: 4.74

P = CCc1nc(-c2ccc3c(c2)CC[C@H]3NC(=O)c2nnc(C)s2)no1 [Compound 619]
Q = [2H]C([2H])([2H])C(=O)N[C@@H]1COc2cc(-c3noc(C(F)F)n3)ccc21 [Compound 447]
query: # compare pIC50 for P vs Q ; return the one with the smaller value In your reply, give the label of the chosen option.
result: Q
(Q: 5.03, P: 5.60)

The reported numbers originate from patent US12065436B2.
